Hi there, I'd appreciate the recorded pEC50 for every entry that follows.
- STUDY SYSTEM: F508delCFTR (Homo sapiens, UniProt P13569, DEL508-508)
- Construct: expressed in transfected cells; host or cells: CFBE41o- human lung-derived epithelial cells (CFBE4lo-F508delCFTR-HRP), doxycycline-inducible
- Sequence (P13569 with tags, fused parts or gaps DEL508-508): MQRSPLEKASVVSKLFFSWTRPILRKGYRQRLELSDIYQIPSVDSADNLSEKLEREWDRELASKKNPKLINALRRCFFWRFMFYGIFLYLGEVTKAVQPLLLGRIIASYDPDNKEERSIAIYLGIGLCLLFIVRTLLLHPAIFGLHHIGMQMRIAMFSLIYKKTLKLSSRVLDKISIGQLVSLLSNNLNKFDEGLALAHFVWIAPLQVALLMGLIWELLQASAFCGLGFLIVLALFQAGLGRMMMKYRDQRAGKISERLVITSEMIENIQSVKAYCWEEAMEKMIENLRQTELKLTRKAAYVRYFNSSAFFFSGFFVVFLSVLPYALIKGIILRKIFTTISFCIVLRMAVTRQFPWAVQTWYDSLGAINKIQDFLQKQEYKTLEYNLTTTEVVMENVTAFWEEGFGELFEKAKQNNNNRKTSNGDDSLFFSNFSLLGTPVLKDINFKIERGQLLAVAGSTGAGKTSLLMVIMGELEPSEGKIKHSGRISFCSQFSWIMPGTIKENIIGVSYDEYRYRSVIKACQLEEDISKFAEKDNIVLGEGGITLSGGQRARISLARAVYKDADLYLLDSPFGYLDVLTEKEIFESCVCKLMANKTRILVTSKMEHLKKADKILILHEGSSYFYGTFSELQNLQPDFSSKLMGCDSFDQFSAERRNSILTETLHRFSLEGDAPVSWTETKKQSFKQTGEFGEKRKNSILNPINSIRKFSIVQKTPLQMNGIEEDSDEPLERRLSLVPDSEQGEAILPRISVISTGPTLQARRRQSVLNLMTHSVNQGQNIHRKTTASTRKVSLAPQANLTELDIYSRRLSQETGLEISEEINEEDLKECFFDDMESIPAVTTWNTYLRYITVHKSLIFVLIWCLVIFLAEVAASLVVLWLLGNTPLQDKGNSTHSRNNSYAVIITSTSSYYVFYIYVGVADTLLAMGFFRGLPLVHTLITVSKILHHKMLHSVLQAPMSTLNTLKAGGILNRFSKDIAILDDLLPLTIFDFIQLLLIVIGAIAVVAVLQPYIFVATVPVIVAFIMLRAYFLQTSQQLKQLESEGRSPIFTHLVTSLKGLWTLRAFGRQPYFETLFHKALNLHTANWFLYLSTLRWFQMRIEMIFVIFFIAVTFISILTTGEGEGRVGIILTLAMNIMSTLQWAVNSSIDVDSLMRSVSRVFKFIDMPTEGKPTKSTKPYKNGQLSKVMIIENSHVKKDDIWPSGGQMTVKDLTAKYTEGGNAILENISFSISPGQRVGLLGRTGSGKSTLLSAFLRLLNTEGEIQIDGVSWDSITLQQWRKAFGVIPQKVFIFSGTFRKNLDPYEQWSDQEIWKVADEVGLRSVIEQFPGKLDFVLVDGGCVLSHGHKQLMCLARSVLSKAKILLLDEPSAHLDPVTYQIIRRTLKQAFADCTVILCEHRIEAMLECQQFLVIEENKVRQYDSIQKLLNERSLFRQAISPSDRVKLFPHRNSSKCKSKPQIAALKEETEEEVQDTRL
- TEST: Cell Surface Expression-Horse Radish Peroxidase (CSE-HRP) Assay
- Assay type: cell-based
- CONDITION SUMMARY: test compound without co-corrector; read-out: EC50 (without co-corrector)
pEC50: −log10 of the molar value.

Data request: Quote F508delCFTR (Homo sapiens, UniProt P13569, DEL508-508) pEC50 for entry COc1cccc([C@H]2[C@@H](NCc3cc(C(F)(F)F)ccc3OC)[C@H](C(C)(C)C)[C@@H](C(=O)O)N2C(=O)C2(C)CCCOC2)n1 (relative stereo) .
Data returned: < 5.00

Data request: Quote F508delCFTR (Homo sapiens, UniProt P13569, DEL508-508) pEC50 for entry Cc1cc(C(F)(F)F)cc(N[C@@H]2[C@@H](C(C)(C)C)[C@H](C(=O)NS(C)(=O)=O)N(C(=O)C3CCCCC3)[C@@H]2c2ccccc2)n1 (racemic) .
Data returned: < 5.00

Data request: Quote F508delCFTR (Homo sapiens, UniProt P13569, DEL508-508) pEC50 for entry COc1ccc(C(C)(C)C)cc1CN[C@H]1[C@H](C(C)(C)C)[C@@H](C(=O)O)N(C(=O)C2CCC(O)(C(F)(F)F)CC2)[C@H]1c1cccnc1N(C)C (some centres unmarked) .
Data returned: 5.00 to 6.00

Data request: Quote F508delCFTR (Homo sapiens, UniProt P13569, DEL508-508) pEC50 for entry "COc1ncc(C(C)(C)C)cc1CN[C@H]1[C@H](C(C)(C)C)[C@@H](C(=O)O)N(C(=O)C2CCCCC2)[C@H]1c1ccc(F)cc1" .
Data returned: > 6.00

Data request: Quote F508delCFTR (Homo sapiens, UniProt P13569, DEL508-508) pEC50 for entry CC(C)(C)[C@@H]1[C@@H](NCc2cccc(Cl)c2O)[C@@H](c2ccccc2)N(C(=O)C2CCCCC2)[C@H]1C(=O)O (racemic) .
Data returned: < 5.00

Data request: Quote F508delCFTR (Homo sapiens, UniProt P13569, DEL508-508) pEC50 for entry "COc1nc2ccccc2cc1CN[C@H]1[C@H](C(C)(C)C)[C@@H](C(=O)O)N(C(=O)[C@@H]2CCCO2)[C@H]1c1cccnc1N(C)C" .
Data returned: 5.00 to 6.00

Data request: Quote F508delCFTR (Homo sapiens, UniProt P13569, DEL508-508) pEC50 for entry Cc1cc(C(F)(F)F)cc(N[C@@H]2[C@@H](C(C)(C)C)[C@H](C(=O)O)N(C(=O)C3CCCCC3)[C@@H]2c2ccccc2)n1 [Example 3] .
Data returned: 5.00 to 6.00

Data request: Quote F508delCFTR (Homo sapiens, UniProt P13569, DEL508-508) pEC50 for entry COc1ccc(C(C)(C)C)cc1CN[C@H]1[C@H](C(C)(C)C)[C@@H](C(=O)O)N(C(=O)[C@@H]2CCC[C@@H](OC)C2)[C@H]1c1cccnc1N(C)C (relative stereo) .
Data returned: 5.00 to 6.00

Data request: Quote F508delCFTR (Homo sapiens, UniProt P13569, DEL508-508) pEC50 for entry "COc1ccc(C(C)(C)C)cc1CN[C@H]1[C@H](C(C)(C)C)[C@@H](C(=O)O)N(C(=O)OC(C)C)[C@H]1c1cccnc1N1CCC1" .
Data returned: 5.00 to 6.00

Data request: Quote F508delCFTR (Homo sapiens, UniProt P13569, DEL508-508) pEC50 for entry COc1ccc(C(C)(C)C)cc1CN[C@H]1[C@H](C(C)(C)C)[C@@H](C(=O)O)N(C(=O)C2CC(C)CC(C)C2)[C@H]1c1cccnc1N(C)C (some centres unmarked) .
Data returned: 5.00 to 6.00

Data request: Quote F508delCFTR (Homo sapiens, UniProt P13569, DEL508-508) pEC50 for entry COc1ccc(C(C)(C)C)cc1CN[C@H]1[C@H](C(C)(C)C)[C@@H](C(=O)O)N(C(=O)C(C)C2CCCCO2)[C@H]1c1ccccc1 (some centres unmarked) .
Data returned: 5.00 to 6.00

Data request: Quote F508delCFTR (Homo sapiens, UniProt P13569, DEL508-508) pEC50 for entry "COc1ccc(C(C)(C)C)cc1CN[C@@H]1[C@@H](C(C)(C)C)[C@@H](C(=O)O)N(C(=O)C2CCCCC2)[C@H]1c1ccccc1" .
Data returned: 5.00 to 6.00

Data request: Quote F508delCFTR (Homo sapiens, UniProt P13569, DEL508-508) pEC50 for entry "COc1cc2c(cc1CN[C@H]1[C@H](C(C)(C)C)[C@@H](C(=O)O)N(C(=O)OC(C)C)[C@H]1c1ccccc1)C(C)(C)CCC2(C)C" .
Data returned: 5.00 to 6.00

Data request: Quote F508delCFTR (Homo sapiens, UniProt P13569, DEL508-508) pEC50 for entry "COc1ccc(C23CC(C2)C3)cc1CN[C@H]1[C@H](C(C)(C)C)[C@@H](C(=O)O)N(C(=O)[C@H]2CCCCO2)[C@H]1c1cccnc1N(C)C" .
Data returned: 5.00 to 6.00

Data request: Quote F508delCFTR (Homo sapiens, UniProt P13569, DEL508-508) pEC50 for entry COc1ccc(C(C)c2ccccc2)cc1CN[C@H]1[C@H](C(C)(C)C)[C@@H](C(=O)O)N(C(=O)C2CCCCC2)[C@H]1c1ccccc1 (some centres unmarked) .
Data returned: 5.00 to 6.00

Data request: Quote F508delCFTR (Homo sapiens, UniProt P13569, DEL508-508) pEC50 for entry "COc1ccc(C(C)(C)C)cc1CN[C@H]1[C@H](C(C)(C)C)[C@@H](C(=O)O)N(C(=O)c2c(C)nn(-c3ccccc3F)c2C)[C@H]1c1ccccc1" .
Data returned: 5.00 to 6.00

Data request: Quote F508delCFTR (Homo sapiens, UniProt P13569, DEL508-508) pEC50 for entry COc1ncc(C2CCC2)cc1CN[C@H]1[C@H](C(C)(C)C)[C@@H](C(=O)O)N(C(=O)C2CCCCO2)[C@H]1c1cccnc1N(C)C (some centres unmarked) .
Data returned: 5.00 to 6.00

Data request: Quote F508delCFTR (Homo sapiens, UniProt P13569, DEL508-508) pEC50 for entry "COc1ncc(C(F)(F)F)cc1CN[C@H]1[C@H](C(C)(C)C)[C@@H](C(=O)O)N(C(=O)C2CCCCC2)[C@H]1c1ccccc1F" .
Data returned: > 6.00

Data request: Quote F508delCFTR (Homo sapiens, UniProt P13569, DEL508-508) pEC50 for entry "COc1ccc(C(C)(C)C)cc1CN[C@H]1[C@H](C(C)(C)C)[C@@H](C(=O)O)N(C(=O)[C@H]2CCCO2)[C@H]1c1ccccc1" .
Data returned: 5.00 to 6.00

Data request: Quote F508delCFTR (Homo sapiens, UniProt P13569, DEL508-508) pEC50 for entry COc1cccc([C@@H]2[C@H](Nc3cc(C(F)(F)F)cc(C)n3)[C@@H](C(C)(C)C)[C@H](C(=O)O)N2C(=O)C2C3COCC32)n1 (mixture of isomers) .
Data returned: 5.00 to 6.00

Data request: Quote F508delCFTR (Homo sapiens, UniProt P13569, DEL508-508) pEC50 for entry COc1ccc(C(C)(C)C)cc1CN[C@H]1[C@H](C(C)(C)C)[C@@H](C(=O)O)N(C(=O)C2(C)CCc3ccccc32)[C@H]1c1ccccc1 (some centres unmarked) .
Data returned: 5.00 to 6.00

Data request: Quote F508delCFTR (Homo sapiens, UniProt P13569, DEL508-508) pEC50 for entry "COc1ccc(C(F)(F)F)cc1CN[C@@H]1[C@@H](C(C)(C)C)[C@H](C(=O)O)N(C(=O)[C@H](OC)c2ccccc2)[C@@H]1c1ccccc1N(C)C" .
Data returned: < 5.00

Data request: Quote F508delCFTR (Homo sapiens, UniProt P13569, DEL508-508) pEC50 for entry "COc1ccc(-c2ccccc2)cc1CN[C@H]1[C@H](C(C)(C)C)[C@@H](C(=O)O)N(C(=O)C2CCCCC2)[C@H]1c1ccccc1" .
Data returned: > 6.00

---

- STUDY SYSTEM: F508delCFTR (Homo sapiens, UniProt P13569, DEL508-508)
- Construct: expressed in transfected cells; host or cells: CFBE41o- human lung-derived epithelial cells (CFBE4lo-F508delCFTR-HRP), doxycycline-inducible
- TEST: Cell Surface Expression-Horse Radish Peroxidase (CSE-HRP) Assay
- Assay type: cell-based
- CONDITION SUMMARY: with co-corrector (2 μM of 3-[(2R,4R)-4-({[1-(2,2-difluoro-1,3-benzodioxol-5-yl)cyclopropyl]carbonyl}amino)-7-methoxy-3,4-dihydro-2H-chromen-2-yl]benzoic acid); read-out: EC50 (with co-corrector)
pEC50: −log10 of the molar value.
Hi there, I'd appreciate the recorded pEC50 for every entry that follows.

Data request: Indicate the recorded pEC50 value for this compound: "COc1ncc(Cc2cccc(C#N)c2)cc1CN[C@H]1[C@H](C(C)(C)C)[C@@H](C(=O)O)N(C(=O)C2CCCCC2)[C@H]1c1ccccc1"
Data returned: 5.00 to 6.00

Data request: Indicate the recorded pEC50 value for this compound: "COc1ccc(-c2ccccc2F)cc1CN[C@H]1[C@H](C(C)(C)C)[C@@H](C(=O)O)N(C(=O)C2CCCCC2)[C@H]1c1ccccc1"
Data returned: > 6.00

Data request: Indicate the recorded pEC50 value for this compound: CCC(C)c1ccc(OC)c(CN[C@H]2[C@H](C(C)(C)C)[C@@H](C(=O)O)N(C(=O)C3CCCCC3)[C@H]2c2ccccc2)c1 (stereo partly drawn)
Data returned: > 6.00

Data request: Indicate the recorded pEC50 value for this compound: COc1ccc(C(C)(C)C)cc1CN[C@H]1[C@H](C(C)(C)C)[C@@H](C(=O)O)N(C(=O)C2CCCCC2C(F)(F)F)[C@H]1c1ccccc1 (stereo partly drawn)
Data returned: > 6.00

Data request: Indicate the recorded pEC50 value for this compound: Cc1cc(C(F)(F)F)cc(N[C@H]2[C@H](C(C)(C)C)[C@@H](C(=O)O)N(C(=O)C3CCCC(F)(F)C3)[C@H]2c2cccnc2N(C)C)n1 (stereo partly drawn)
Data returned: 5.00 to 6.00

Data request: Indicate the recorded pEC50 value for this compound: "COc1ccc(C(C)(C)C)cc1CN[C@H]1[C@H](C(C)(C)C)[C@@H](C(=O)O)N(C(=O)[C@@H]2CCCCO2)[C@H]1c1ccccc1C"
Data returned: > 6.00
